Record form. Attribute: pIC50. Fill in for each entry.
system: 628569-122-R-J1-PDC complex spheroid viability; assay: Anticancer human tumor 628569-122-R-J1-PDC patient-derived head and neck squamous carcinoma cell line growth inhibition [CLK]; details: curve of first compound; second compound 0.0316 µM
Numbers only, as −log10 of the molar value.

Look over these answered cases.
CC1COCCN1c1cc(C2(S(C)(=N)=O)CC2)nc(-c2ccnc3[nH]ccc23)n1 (stereo not given) + CN1CCN(c2cc(C(=O)Nc3cc4cc(-c5cnn(C)c5)ccc4cn3)ccn2)CC1
5.58
CC(Nc1ccc2c(c1)OCCn1cc(N3C(=O)OCC3C(F)F)nc1-2)C(N)=O (stereo not given) + CN1CCN(c2cc(C(=O)Nc3cc4cc(-c5cnn(C)c5)ccc4cn3)ccn2)CC1
6.36
COc1c(OCCCN2CCOCC2)ccc2c3n(c(=NC(=O)c4cnc(N)nc4)nc12)CCN3 + CN1CCN(c2cc(C(=O)Nc3cc4cc(-c5cnn(C)c5)ccc4cn3)ccn2)CC1
7.68
CC1COCCN1c1cc(C2(S(C)(=N)=O)CC2)nc(-c2ccnc3[nH]ccc23)n1 (stereo not given) + CNC(=O)c1ccc(Nc2nc(OC3CCCC3)c3c(-c4ccc5nc(C)oc5c4)c[nH]c3n2)c(OC)c1
6.03
COc1ccc([C@@H](O)c2cc(-c3ncnc4cc(N5CCOCC5)ccc34)c(F)cc2Cl)nn1 + CN1CCN(c2cc(C(=O)Nc3cc4cc(-c5cnn(C)c5)ccc4cn3)ccn2)CC1
5.68
COc1c(OCCCN2CCOCC2)ccc2c3n(c(=NC(=O)c4cnc(N)nc4)nc12)CCN3 + CNC(=O)c1ccc(Nc2nc(OC3CCCC3)c3c(-c4ccc5nc(C)oc5c4)c[nH]c3n2)c(OC)c1
7.63

Would you be so kind as to report pIC50 for each listed record?
1. CC(Nc1ccc2c(c1)OCCn1cc(N3C(=O)OCC3C(F)F)nc1-2)C(N)=O (stereo not given) + CNC(=O)c1ccc(Nc2nc(OC3CCCC3)c3c(-c4ccc5nc(C)oc5c4)c[nH]c3n2)c(OC)c1
2. COc1ccc([C@@H](O)c2cc(-c3ncnc4cc(N5CCOCC5)ccc34)c(F)cc2Cl)nn1 + CNC(=O)c1ccc(Nc2nc(OC3CCCC3)c3c(-c4ccc5nc(C)oc5c4)c[nH]c3n2)c(OC)c1
3. CCc1c2c(nc3ccc(O)cc13)-c1cc3c(c(=O)n1C2)COC(=O)[C@]3(O)CC + CN1CCN(c2cc(C(=O)Nc3cc4cc(-c5cnn(C)c5)ccc4cn3)ccn2)CC1
4. COC1C=CCC(C)C(C)S(=O)(=O)NC(=O)c2ccc3c(c2)N(CC2CCC21)CC1(CCCc2cc(Cl)ccc21)CO3 (stereo not given) + CNC(=O)c1ccc(Nc2nc(OC3CCCC3)c3c(-c4ccc5nc(C)oc5c4)c[nH]c3n2)c(OC)c1

6.57
5.70
7.04
5.70

For the compound shown here, COC1C=CCC(C)C(C)S(=O)(=O)NC(=O)c2ccc3c(c2)N(CC2CCC21)CC1(CCCc2cc(Cl)ccc21)CO3 (stereo not given) + CN1CCN(c2cc(C(=O)Nc3cc4cc(-c5cnn(C)c5)ccc4cn3)ccn2)CC1 , give the reported pIC50. 5.76

====

Exercise: state measured viability, T/C for each of the compounds provided.
tested on: 628569-122-R-J1-PDC complex spheroid viability; test: Anticancer human tumor 628569-122-R-J1-PDC cell line growth inhibition [CLK]; settings: second compound 0.0316 µM; first compound 3.16 µM; stronger effect = lower value;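 note: spheroids exposed to agents for seven days before readout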;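 for viability, T/C: 100% = DMSO vehicle control viability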

Check out these entries, answers already filled in.
COc1ccc([C@@H](O)c2cc(-c3ncnc4cc(N5CCOCC5)ccc34)c(F)cc2Cl)nn1 + CN1CCN(c2cc(C(=O)Nc3cc4cc(-c5cnn(C)c5)ccc4cn3)ccn2)CC1
37.3%
COc1cccc2c1C(=O)c1c(O)c3c(c(O)c1C2=O)CC(O)(C(=O)CO)CC3OC1CC(N)C(O)C(C)O1 (centres undefined) + CNC(=O)c1ccc(Nc2nc(OC3CCCC3)c3c(-c4ccc5nc(C)oc5c4)c[nH]c3n2)c(OC)c1
19.5%
COc1ccc([C@@H](O)c2cc(-c3ncnc4cc(N5CCOCC5)ccc34)c(F)cc2Cl)nn1 + CNC(=O)c1ccc(Nc2nc(OC3CCCC3)c3c(-c4ccc5nc(C)oc5c4)c[nH]c3n2)c(OC)c1
42.3%

// returns reported viability, T/C for input CC(=O)O[C@H]1C(=O)[C@@]2(C)[C@H]([C@H](OC(=O)c3ccccc3)[C@]3(O)C[C@H](OC(=O)[C@H](O)[C@@H](NC(=O)c4ccccc4)c4ccccc4)C(C)=C1C3(C)C)[C@]1(OC(C)=O)CO[C@@H]1C[C@@H]2O + CN1CCN(c2cc(C(=O)Nc3cc4cc(-c5cnn(C)c5)ccc4cn3)ccn2)CC1 41.6%

====

System: 628569-122-R-J1-PDC complex spheroid viability
Experiment: Anticancer human tumor 628569-122-R-J1-PDC cell line growth inhibition [CLK];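 note: spheroids exposed to agents for seven days before readout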;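 for viability, T/C: 100% = DMSO vehicle control viability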
Conditions: second compound 0.316 µM; first compound 0.316 µM; stronger effect = lower value
Excerpt: A high-throughput screen of multi-cell type tumor spheroids was designed to identify active combinations of […] and targeted small molecules. Complex spheroids include a stromal component modeled by human endothelial cells (HUVEC) and fibroblasts modeled by human mesenchymal stem cells (MSCs). […] Compounds. […] If the clinical Cmax for an agent had not been determined, the highest concentration tested was 10 microM. […]
Readout type: viability, T/C

Worked cases, viability, T/C given:
C#Cc1c(F)ccc2cc(O)cc(-c3ncc4c(N5CC6CCC(C5)N6)nc(OCC56CCCN5CC(F)C6)nc4c3F)c12 (stereo not given) + CN1CCN(c2cc(C(=O)Nc3cc4cc(-c5cnn(C)c5)ccc4cn3)ccn2)CC1
34.9%
CCc1c2c(nc3ccc(O)cc13)-c1cc3c(c(=O)n1C2)COC(=O)[C@]3(O)CC + CNC(=O)c1ccc(Nc2nc(OC3CCCC3)c3c(-c4ccc5nc(C)oc5c4)c[nH]c3n2)c(OC)c1
31.9%
O=C(c1cc(Cc2n[nH]c(=O)c3ccccc23)ccc1F)N1CCN(C(=O)C2CC2)CC1 + CN1CCN(c2cc(C(=O)Nc3cc4cc(-c5cnn(C)c5)ccc4cn3)ccn2)CC1
33.9%
O=C(c1cc(Cc2n[nH]c(=O)c3ccccc23)ccc1F)N1CCN(C(=O)C2CC2)CC1 + CNC(=O)c1ccc(Nc2nc(OC3CCCC3)c3c(-c4ccc5nc(C)oc5c4)c[nH]c3n2)c(OC)c1
56.6%

Need viability, T/C of CC1(C)CCC(CN2CCN(c3ccc(C(=O)NS(=O)(=O)c4ccc(NCC5CCOCC5)c([N+](=O)[O-])c4)c(Oc4cnc5[nH]ccc5c4)c3)CC2)=C(c2ccc(Cl)cc2)C1 + CN1CCN(c2cc(C(=O)Nc3cc4cc(-c5cnn(C)c5)ccc4cn3)ccn2)CC1 , thanks. 41.3%

====

tested on: 628569-122-R-J1-PDC complex spheroid viability; assay: Anticancer human tumor 628569-122-R-J1-PDC cell line growth inhibition [CLK]; settings: second compound 10 µM; first compound 0.316 µM; active = viability on the fitted dose curve at most 10% of control; inactive = the rest;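 note: spheroids exposed to agents for seven days before readout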
Please state which outcome applies, choosing from active, inactive

Name the outcome recorded for O=c1[nH]cc(F)c(=O)[nH]1 + CNC(=O)c1ccc(Nc2nc(OC3CCCC3)c3c(-c4ccc5nc(C)oc5c4)c[nH]c3n2)c(OC)c1 in the assay. inactive

Recorded call for CCN1CCN(Cc2ccc(Nc3ncc(F)c(-c4cc(F)c5nc(C)n(C(C)C)c5c4)n3)nc2)CC1 + CN1CCN(c2cc(C(=O)Nc3cc4cc(-c5cnn(C)c5)ccc4cn3)ccn2)CC1 ? active

What outcome does the record of this test show for C=CC(=O)N1CCN(c2nc(=O)n(-c3c(C)ccnc3C(C)C)c3nc(-c4c(O)cccc4F)c(F)cc23)C(C)C1 (stereo not drawn) + CNC(=O)c1ccc(Nc2nc(OC3CCCC3)c3c(-c4ccc5nc(C)oc5c4)c[nH]c3n2)c(OC)c1 ? inactive

====

tested on: 628569-122-R-J1-PDC complex spheroid viability; assay: Anticancer human tumor 628569-122-R-J1-PDC cell line growth inhibition [CLK]; details: curve of first compound; second compound 0.316 µM;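 note: spheroids exposed to agents for seven days before readout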
Readout type: IC50

Respectfully, I request IC50 for each entry included below.
1. CC(=O)O[C@H]1C(=O)[C@@]2(C)[C@H]([C@H](OC(=O)c3ccccc3)[C@]3(O)C[C@H](OC(=O)[C@H](O)[C@@H](NC(=O)c4ccccc4)c4ccccc4)C(C)=C1C3(C)C)[C@]1(OC(C)=O)CO[C@@H]1C[C@@H]2O + CN1CCN(c2cc(C(=O)Nc3cc4cc(-c5cnn(C)c5)ccc4cn3)ccn2)CC1
2. O=c1[nH]cc(F)c(=O)[nH]1 + CNC(=O)c1ccc(Nc2nc(OC3CCCC3)c3c(-c4ccc5nc(C)oc5c4)c[nH]c3n2)c(OC)c1
3. NC(=O)C(=Cn1cnc(-c2cc(C(F)(F)F)cc(C(F)(F)F)c2)n1)c1cncnc1 + CN1CCN(c2cc(C(=O)Nc3cc4cc(-c5cnn(C)c5)ccc4cn3)ccn2)CC1
4. C#Cc1c(F)ccc2cc(O)cc(-c3ncc4c(N5CC6CCC(C5)N6)nc(OCC56CCCN5CC(F)C6)nc4c3F)c12 (stereo not given) + CN1CCN(c2cc(C(=O)Nc3cc4cc(-c5cnn(C)c5)ccc4cn3)ccn2)CC1
5. O=C(c1cc(Cc2n[nH]c(=O)c3ccccc23)ccc1F)N1CCN(C(=O)C2CC2)CC1 + CN1CCN(c2cc(C(=O)Nc3cc4cc(-c5cnn(C)c5)ccc4cn3)ccn2)CC1
6. COc1c(OCCCN2CCOCC2)ccc2c3n(c(=NC(=O)c4cnc(N)nc4)nc12)CCN3 + CN1CCN(c2cc(C(=O)Nc3cc4cc(-c5cnn(C)c5)ccc4cn3)ccn2)CC1
7. COc1ccc([C@@H](O)c2cc(-c3ncnc4cc(N5CCOCC5)ccc34)c(F)cc2Cl)nn1 + CNC(=O)c1ccc(Nc2nc(OC3CCCC3)c3c(-c4ccc5nc(C)oc5c4)c[nH]c3n2)c(OC)c1
8. O=c1[nH]cc(F)c(=O)[nH]1 + CN1CCN(c2cc(C(=O)Nc3cc4cc(-c5cnn(C)c5)ccc4cn3)ccn2)CC1

< 0.0316 µM
> 10 µM
< 0.00949 µM
< 0.0316 µM
< 0.0316 µM
< 0.00316 µM
< 0.0316 µM
< 0.0316 µM

Each compound below has a reported value. Please supply its IC50.
1. CC1COCCN1c1cc(C2(S(C)(=N)=O)CC2)nc(-c2ccnc3[nH]ccc23)n1 (stereo not given) + CNC(=O)c1ccc(Nc2nc(OC3CCCC3)c3c(-c4ccc5nc(C)oc5c4)c[nH]c3n2)c(OC)c1
2. CC1(C)CCC(CN2CCN(c3ccc(C(=O)NS(=O)(=O)c4ccc(NCC5CCOCC5)c([N+](=O)[O-])c4)c(Oc4cnc5[nH]ccc5c4)c3)CC2)=C(c2ccc(Cl)cc2)C1 + CN1CCN(c2cc(C(=O)Nc3cc4cc(-c5cnn(C)c5)ccc4cn3)ccn2)CC1

1.38 µM
< 0.0316 µM
